# Test system: A498
# measurementNotes: NCI tumour cell line growth inhibition, 48 h
Calls of active or inactive are those of the source. Rule as the data show it: active = GI50 up to about 1.1 µM and inactive = higher.
// classify into active, inactive

{"compound": "CCN(CC)CCCNc1nc2ccccc2[n+]([O-])n1", "classLabel": "inactive"}

## Task Hello, I am checking results. What call was entered for `CC(C)=CCC/C(C)=C/CC/C(C)=C/CC/C(C)=C/CC/C(C)=C\CC/C(C)=C/CC/C(C)=C/CC/C(C)=C/Cc1cc(O)ccc1O` ?
## Result active

====

# Tested on: HCT-116
# measurementNotes: NCI tumour cell line growth inhibition, 48 h
Active and inactive are the calls of the source. No stated cut-off is given here; in the data, active = GI50 up to about 1.1 µM and inactive = higher.
readoutType: GI50

Example cases with answers are listed next.
{"compound": "CCN(CC)CCCNc1nc2ccccc2[n+]([O-])n1", "readoutType": "GI50", "endpointValue": "> 100 µM (inactive)"}
{"compound": "CC1CNC(NS(=O)(=O)c2cc(C(=O)Nc3ccccc3)c(Cl)cc2S)=NN1 (configuration not stated)", "readoutType": "GI50", "endpointValue": "30.5 µM (inactive)"}
{"compound": "O=c1oc2cccnc2n1CCCCN1CCN(c2ccccc2)CC1", "readoutType": "GI50", "endpointValue": "> 100 µM (inactive)"}
{"compound": "O=C(CCl)NNC1=Nc2ccc(Cl)cc2SC1", "readoutType": "GI50", "endpointValue": "1.64 µM (inactive)"}
{"compound": "CC(=O)C(C(c1ccccc1)N1CCOCC1)N1CCOCC1 (configuration not stated)", "readoutType": "GI50", "endpointValue": "> 100 µM (inactive)"}
{"compound": "N#C/C(=C\\c1ccncc1)c1csc2ccccc12", "readoutType": "GI50", "endpointValue": "16.6 µM (inactive)"}
{"compound": "c1csc(-c2ccc(-c3ccc(-c4cccs4)s3)s2)c1", "readoutType": "GI50", "endpointValue": "> 100 µM (inactive)"}
{"compound": "O=C1C=C(c2ccccc2)O/C1=C\\C(=O)c1ccc(Cl)cc1", "readoutType": "GI50", "endpointValue": "16.4 µM (inactive)"}
{"compound": "O=c1c2c(nc3[nH]ccn13)CCCC2", "readoutType": "GI50", "endpointValue": "> 10 µM (inactive)"}
{"compound": "CN[C@@H](C)[C@H](N)c1ccccc1", "readoutType": "GI50", "endpointValue": "> 100 µM (inactive)"}

Entry Nc1ncc(Cl)c(NCC2(CO)CC(CCc3ccccc3)C2)n1 (configuration not stated) , GI50 reported as 3.7 µM (inactive)

Measured GI50, `Cc1cc2c(=O)cc(-c3ccc(Cl)cc3Cl)oc2c(C(=O)O)c1C` : > 100 µM (inactive)

====

# System: SF-295
# measurementNotes: NCI tumour cell line growth inhibition, 48 h
Active and inactive are the calls of the source. No stated cut-off is given here; in the data, active = GI50 up to about 1.1 µM and inactive = higher.
readoutType: GI50

Before answering, review these 5 worked examples.
{"compound": "Cc1ccc(/C=N/n2c(-c3ccc(C)cc3)n[nH]c2=O)cc1", "GI50": "48.8 µM (inactive)"}
{"compound": "C1=C(c2ccccc2)NC2=N[C@H]3CCCC[C@@H]3N2C1c1ccccc1 (stereo partly specified)", "GI50": "13 µM (inactive)"}
{"compound": "CN1N=C2c3ccccc3CC[C@H]2C1c1cccc(O)c1 (stereo partly specified)", "GI50": "> 100 µM (inactive)"}
{"compound": "CNC(=O)c1cc2nc3ccccc3c(=O)n2c2ccccc12", "GI50": "> 10 µM (inactive)"}
{"compound": "O=C(c1ccccc1)C(Nc1ccc2ccccc2c1)c1ccccc1 (stereo unspecified)", "GI50": "24.7 µM (inactive)"}

Attention now shifts to the item below.
Data point: `O=C1c2cc(Cc3ccccc3)c(=O)c(Cc3ccccc3)cc2C(=O)c2cc(Cc3ccccc3)c(=O)c(Cc3ccccc3)cc21` ; GI50 = > 100 µM (inactive)
